Target: androgen receptor (AR) (Homo sapiens, UniProt P10275, T878A)
Sequence (P10275 1-920 T878A): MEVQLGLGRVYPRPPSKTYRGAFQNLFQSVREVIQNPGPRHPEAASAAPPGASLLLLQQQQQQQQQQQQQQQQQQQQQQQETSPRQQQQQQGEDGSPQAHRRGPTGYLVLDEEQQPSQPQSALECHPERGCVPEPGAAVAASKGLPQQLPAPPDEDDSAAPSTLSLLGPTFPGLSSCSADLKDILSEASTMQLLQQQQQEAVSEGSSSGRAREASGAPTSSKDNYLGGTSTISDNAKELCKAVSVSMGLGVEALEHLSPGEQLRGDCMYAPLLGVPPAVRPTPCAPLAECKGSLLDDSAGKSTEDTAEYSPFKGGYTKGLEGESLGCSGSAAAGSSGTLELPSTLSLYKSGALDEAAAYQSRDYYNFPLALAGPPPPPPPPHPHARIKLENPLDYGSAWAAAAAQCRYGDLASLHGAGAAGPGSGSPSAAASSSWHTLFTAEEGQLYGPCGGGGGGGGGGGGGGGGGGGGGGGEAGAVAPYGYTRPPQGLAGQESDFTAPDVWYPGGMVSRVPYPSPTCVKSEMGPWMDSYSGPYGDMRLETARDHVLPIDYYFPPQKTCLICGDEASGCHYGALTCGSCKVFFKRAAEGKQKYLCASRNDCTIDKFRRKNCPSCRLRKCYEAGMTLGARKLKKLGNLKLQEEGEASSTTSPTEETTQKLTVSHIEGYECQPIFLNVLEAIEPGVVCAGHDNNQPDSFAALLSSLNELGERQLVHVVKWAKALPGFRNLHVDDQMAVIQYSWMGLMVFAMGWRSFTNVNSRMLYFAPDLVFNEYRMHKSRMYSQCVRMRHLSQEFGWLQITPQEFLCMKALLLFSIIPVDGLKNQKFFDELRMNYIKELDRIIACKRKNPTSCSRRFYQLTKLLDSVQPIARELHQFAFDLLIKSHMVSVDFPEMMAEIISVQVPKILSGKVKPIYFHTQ
Experiment: eGFP cellular AR transcription assay (LNCaP eGFP cells, LN-ARR2PB-eGFP)
Details: eGFP IC50 (μM), Series 1
attribute measured: log10(IC50) (log10 of the value in µM)

compound	tested target	log10(IC50)
CC1CCCN(c2nc(-c3ccc(O)cc3O)cs2)C1 (stereo not shown) [Compound 14301]	androgen receptor (AR) (Homo sapiens, UniProt P10275, T878A)	0.70
Oc1ccc(-c2csc(-c3ccccc3)n2)cc1 [Compound 14420]	androgen receptor (AR) (Homo sapiens, UniProt P10275, T878A)	0.57
Fc1ccc(-c2csc(-c3ccncc3)n2)cc1 [Compound 14315]	androgen receptor (AR) (Homo sapiens, UniProt P10275, T878A)	0.08
CC(=O)c1ccc(-c2ccccc2)s1 [Compound 14422]	androgen receptor (AR) (Homo sapiens, UniProt P10275, T878A)	0.35
c1cc(-c2csc(N3CCCCC3)n2)cs1 [Compound 14131]	androgen receptor (AR) (Homo sapiens, UniProt P10275, T878A)	-0.09
Clc1ncn(-c2csc(N3CCOCC3)n2)c1Cl [Compound 14402]	androgen receptor (AR) (Homo sapiens, UniProt P10275, T878A)	-0.18
Clc1ncn(-c2csc(N3CCOCC3)n2)c1Br [Compound 14451]	androgen receptor (AR) (Homo sapiens, UniProt P10275, T878A)	-0.48
O=[N+]([O-])c1ccc(-c2csc(N3CCOCC3)n2)cc1 [Compound 14254]	androgen receptor (AR) (Homo sapiens, UniProt P10275, T878A)	1.20
FC(F)(F)c1cccc(-c2csc(-c3ccncc3)n2)c1 [Compound 14421]	androgen receptor (AR) (Homo sapiens, UniProt P10275, T878A)	0.66
c1cc(-c2csc(N3CCOCC3)n2)ccn1 [Compound 14435]	androgen receptor (AR) (Homo sapiens, UniProt P10275, T878A)	0.42
